Ref: ChEMBL document CHEMBL3992515

TEST: Cytotoxicity against human HG23 cells after 48 hrs by crystal violet staining-based assay
Type: cell-based
RUN PARAMETERS: HG23 cells, read-out: TC50
ASSAY READOUT: CC50 at 48 h

Look over these answered cases.
>>> print(df.to_string())
                                   compound  recorded_value
0  C[C@@H]1NC(=O)OC(c2cccc(Cl)c2)CCCCCNC(=O)CC[C@@H](C=O)NC1=O (stereo partly drawn)        > 100 µM
1  CC(C)C[C@@H]1NC(=O)OC(c2cccc(Cl)c2)CCCCCNC(=O)CC[C@@H](C(=O)C(=O)NC2CC2)NC1=O (stereo partly drawn)         53.1 µM
2  CC(C)C[C@@H]1NC(=O)OC(CCCc2ccccc2)CCCCCNC(=O)CC[C@@H](C(O)S(=O)(=O)O)NC1=O (stereo partly drawn)         69.2 µM
3  C[C@@H]1NC(=O)OC(c2cccc(Cl)c2)CCCCCCNC(=O)CC[C@@H](C=O)NC1=O (stereo partly drawn)        > 100 µM
4  O=C[C@@H]1CCC(=O)NCCCCCCC(c2cccc(Cl)c2)OC(=O)NC2(CCCCC2)C(=O)N1 (stereo partly drawn)         53.3 µM
5  CC(C)C[C@@H]1NC(=O)OC(c2cccc(Cl)c2)CCCCCNC(=O)CC[C@@H](C=O)NC1=O (stereo partly drawn)        > 100 µM
6  O=C1CC[C@@H](C(O)S(=O)(=O)O)NC(=O)C2(CCCCC2)NC(=O)OC(c2cccc(Cl)c2)CCCCCCN1 (stereo partly drawn)         46.6 µM

Prompt line: Which value of CC50 at 48 h has been reported for CC(C)C[C@@H]1NC(=O)OC(Cc2ccccc2)CC/C=C/CNC(=O)CC[C@@H](C=O)NC1=O (stereo partly drawn) in the records?
Response line: > 100 µM

---

# CC50 at 48 h per entry
TEST: Cytotoxicity against human HG23 cells after 48 hrs by crystal violet staining-based assay
Assay type: cell-based
RUN PARAMETERS: HG23 cells, read-out: TC50
Field format: number, assumed µM, no unit text.

>>> print(df.to_string())
                                   molecule  recorded_value
0  O=C[C@@H]1CCC(=O)NCCCCCC(c2cccc(Cl)c2)OC(=O)NC2(CCCCC2)C(=O)N1 (some centres undefined)            62.4

Prompt line: Which value of CC50 at 48 h has been reported for CCCCCC1CCCCCNC(=O)CC[C@@H](C(O)S(=O)(=O)O)NC(=O)[C@H](CC(C)C)NC(=O)O1 (some centres undefined) in the records?
Response line: 78.5

Prompt line: Which value of CC50 at 48 h has been reported for O=C1CC[C@@H](C(O)S(=O)(=O)O)NC(=O)C2(CCCCC2)NC(=O)OC(c2cccc(Cl)c2)CCCCCN1 (some centres undefined) in the records?
Response line: 48.5

---

TEST: Cytotoxicity against human HG23 cells after 48 hrs by crystal violet staining-based assay
Assay type: cell-based
RUN PARAMETERS: HG23 cells, read-out: TC50
# CC50 at 48 h per entry
Field format: number, assumed µM, no unit text.

In [3]: df
Out[3]:
                                   molecule  assay_readout  recorded_value
0  CCCCCC1CCCCCNC(=O)CC[C@@H](C=O)NC(=O)[C@H](CC(C)C)NC(=O)O1 (stereo partly drawn)   CC50 at 48 h            72.7
1  O=C[C@@H]1CCC(=O)NC/C=C/CCC(c2cccc(Cl)c2)OC(=O)N[C@@H](CC2CCCCC2)C(=O)N1 (stereo partly drawn)   CC50 at 48 h            42.3
2  CC(C)C[C@@H]1NC(=O)OC(CCCc2ccccc2)CCCCCNC(=O)CC[C@@H](C=O)NC1=O (stereo partly drawn)   CC50 at 48 h            71.5
3  O=C[C@@H]1CCC(=O)NCCCCCC(c2cccc(Cl)c2)OC(=O)N[C@@H](CC2CCCCC2)C(=O)N1 (stereo in doubt; form 1)   CC50 at 48 h            62.4
4  CC(C)C[C@@H]1NC(=O)OC(c2cccc(Cl)c2)CCCCCONC(=O)CC[C@@H](C=O)NC1=O (stereo in doubt; 36A)   CC50 at 48 h            68.3

Prompt line: Which value of CC50 at 48 h has been reported for CC(C)C[C@@H]1NC(=O)OC(c2cccc(Cl)c2)CCCCCCNC(=O)CC[C@@H](C=O)NC1=O (stereo partly drawn) in the records?
Response line: 67.4
